- assay text: yeast display, Sf9 membrane polyspecificity reagent, FACS + sequencing; frameworks hold sequencing errors
reported property: polyreactivity (PSR sort gate)

QVQLVESGGCLVQAGGSLRLSWAASGRTLGGYALGWYRQAPGKERELVAAINRSGTRTYYADSVKGRFTISRDKAKNTVYLQFNSLKPEDTAVYYCAASWYPGSRNYDYGGQGTQVTVSS
high polyreactivity
QVQLVESGGGLVQEGGSLRLSCAASGSIFDVYAMGWYRQAPGKERELVAAISSSGSTYYADSVKGRFTISRDNAKNTVYLQMNSLKPEDTAVYYCAADQADDDDYYYWGQVTQVTVSS
low polyreactivity
QVQLVESGGGLVQAGGSLRLSCAASGFNFRWYAMGWYRQAPGKESEFVAAITWRGGRTYYADSVKGRFTISRDNAKNTVYLQMNSLKPEDTAVYYCNAVYQYWHYSEGNYWGQGTQVTVSS
low polyreactivity
QVQLVESGGGLVQVGGSLRLSCAASGSIFAINAMGWYRQAPGKERELVAAIRRRDGNTYYADSVKGRFTISRDNAKNTVYLQMNSLKPEDTAVYYCNTYSRRTSVIAYRYNYWGQGTQVTVSS
high polyreactivity

For this sequence ( QVQLVESGGGLVQAGGSHRLSCAASGRTFVVYAMGWYRQAPGKERELVARIRWRDVSTYYADSVKGRFTISRDNAKTTVYLQMNSLKPEDTAVYYCAARSYTGGGRLYYWGQGTQVTVSS ), measured polyreactivity (PSR sort gate) is high polyreactivity
